Consider the following sequences; for each one, report its recombinant UMI read abundance (log10).
- measurement protocol: recombinant UMI read abundance after kanamycin selection (control-corrected) (log10(CPM+1)); higher = more efficient recombination; extreme values may be limits of the assay; sequences stand for … in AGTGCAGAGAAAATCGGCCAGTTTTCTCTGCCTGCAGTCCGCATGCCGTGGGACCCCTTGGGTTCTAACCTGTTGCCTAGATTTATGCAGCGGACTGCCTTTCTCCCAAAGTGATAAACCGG…AGGTTGGTTTCACT; site = the 11-nt donor
Numbers only.

Look over these answered cases.
TCAGTGACATGGACCGGTTTTCCCGGTAATCCGTATTTGCG (site TCAGGGACTCG); 0.00386
CAGTCCTCATGGACCGGTTTTCCCGGTAATCCGTATTTGCC (site CACTCCTCTGG); 2.05
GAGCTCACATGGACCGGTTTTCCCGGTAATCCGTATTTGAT (site GACCTCACTAT); 0.584
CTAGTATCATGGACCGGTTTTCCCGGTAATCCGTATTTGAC (site CTCATATCTGT); 0.632
ACAGTAACATGGACCGGTTTTCCCGGTAATCCGTATTTGCA (site ACAGTAACTTG); 2.83
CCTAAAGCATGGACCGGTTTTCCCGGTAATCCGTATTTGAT (site CCTTAAGCTAT); 0.0074

Batch request: recombinant UMI read abundance (log10) per item, same order as input.
1. GGAGTGGCATGGACCGGTTTTCCCGGTAATCCGTATTTGGC (site GGAGTGGCTTC)
2. AGAAATCCATGGACCGGTTTTCCCGGTAATCCGTATTTGTT (site AGAAATCCTAA)
3. GTATCTACATGGACCGGTTTTCCCGGTAATCCGTATTTGCT (site GTATCTACTAG)

Result:
0.328
0.589
1.66

----------
- measurement protocol: recombinant barcode read abundance after kanamycin selection (control-corrected) (log10(CPM+1)); higher = more efficient recombination; sequences stand for … in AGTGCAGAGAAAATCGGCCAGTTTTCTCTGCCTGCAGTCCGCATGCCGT…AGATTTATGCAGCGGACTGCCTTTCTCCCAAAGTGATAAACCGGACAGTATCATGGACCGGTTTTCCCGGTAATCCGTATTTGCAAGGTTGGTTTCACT; site = the 11-nt target
Tick Met if recombinant barcode read abundance (log10) is 0.06 or greater. Tick Not met if recombinant barcode read abundance (log10) is less than 0.06.

// below: answered sequences
TCACTCTCTTGGGTTCTAACCTGTTGCCT (site TTACTCTCTAG); Met
GAGCGTCCTTGGGTTCTAACCTGTTGCTA (site GAGCGTCCTTA); Met

Query: Tell me whether recombinant barcode read abundance (log10) is at least 0.06 here: GAGGCTCCTTGGGTTCTAACCTGTTGCCT (site GAGGCTCCTAG)
Result: Met

Query: Tell me whether recombinant barcode read abundance (log10) is at least 0.06 here: CAGCTACCTTGGGTTCTAACCTGTTGCCT (site CGGCTACCTAG)
Result: Met

Query: Tell me whether recombinant barcode read abundance (log10) is at least 0.06 here: AGGAACACTTGGGTTCTAACCTGTTGCCT (site AGGAACACTAG)
Result: Met

Query: Tell me whether recombinant barcode read abundance (log10) is at least 0.06 here: TACCCGTCTTGGGTTCTAACCTGTTGCTT (site TACCAGTCTAA)
Result: Not met

Query: Tell me whether recombinant barcode read abundance (log10) is at least 0.06 here: TTAGGGTCTTGGGTTCTAACCTGTTGCCT (site TTAGGGACTAG)
Result: Met
